# Products(%) Y96F listing for each entry below
target-or-test-system: P450cam active site mutant Y96F (also C334A) (Pseudomonas putida, UniProt P00183, C335A/Y97F)
Construct: reconstituted with putidaredoxin and putidaredoxin reductase
Sequence (P16640 whole entry): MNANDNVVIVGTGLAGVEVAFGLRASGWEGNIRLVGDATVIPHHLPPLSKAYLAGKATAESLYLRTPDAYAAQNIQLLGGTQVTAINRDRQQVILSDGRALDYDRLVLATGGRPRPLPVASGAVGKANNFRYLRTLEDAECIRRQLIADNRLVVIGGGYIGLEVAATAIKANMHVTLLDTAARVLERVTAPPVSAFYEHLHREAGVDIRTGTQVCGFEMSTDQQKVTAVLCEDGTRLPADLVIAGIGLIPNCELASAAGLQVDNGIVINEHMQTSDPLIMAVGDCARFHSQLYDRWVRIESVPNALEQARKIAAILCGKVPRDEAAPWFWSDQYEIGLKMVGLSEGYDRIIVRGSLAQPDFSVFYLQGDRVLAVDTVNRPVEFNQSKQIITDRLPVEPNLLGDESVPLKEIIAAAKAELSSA
Sequence (P00183 2-415 Y97F/C335A): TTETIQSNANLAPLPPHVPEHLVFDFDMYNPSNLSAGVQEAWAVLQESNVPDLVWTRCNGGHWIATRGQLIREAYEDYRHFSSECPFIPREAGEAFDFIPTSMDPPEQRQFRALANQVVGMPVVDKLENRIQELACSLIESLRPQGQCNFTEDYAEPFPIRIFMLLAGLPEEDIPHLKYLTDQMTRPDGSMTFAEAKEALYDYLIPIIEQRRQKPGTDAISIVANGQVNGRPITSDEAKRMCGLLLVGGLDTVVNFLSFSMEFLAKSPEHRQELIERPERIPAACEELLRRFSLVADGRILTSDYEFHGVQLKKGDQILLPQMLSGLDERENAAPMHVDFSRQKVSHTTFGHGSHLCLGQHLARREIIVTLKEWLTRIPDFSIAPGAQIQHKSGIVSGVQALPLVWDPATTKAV
Sequence (P00259 whole entry, further chain): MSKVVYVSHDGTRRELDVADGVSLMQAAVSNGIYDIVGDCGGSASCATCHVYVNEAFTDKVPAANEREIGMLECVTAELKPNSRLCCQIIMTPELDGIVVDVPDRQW
Type: biochemical, P. putida
recorded-conditions: substrate hexane; label = product
parameter: Products(%) Y96F

[
  {
    "molecule": "CCCCC(C)O (stereo not shown) [2-hexanol]",
    "parameter": "Products(%) Y96F",
    "readout-number": 24
  },
  {
    "molecule": "CCCCC(C)=O [2-hexanone]",
    "parameter": "Products(%) Y96F",
    "readout-number": 10
  },
  {
    "molecule": "CCCC(O)CC (stereo not shown) [3-hexanol]",
    "parameter": "Products(%) Y96F",
    "readout-number": 50
  },
  {
    "molecule": "CCCC(=O)CC [3-hexanone]",
    "parameter": "Products(%) Y96F",
    "readout-number": 16
  }
]
